- assay protocol: in vivo
- settings: both, beagle, dog, plasma, iv, 4 mg/animal
result type: half-life (h)
Answers are plain numbers, in h.

Provide measured half-life value, entry: C=C1CC[C@@]2(O)[C@H]3Cc4ccc(O)c5c4[C@@]2(CCN3CC2CC2)[C@H]1O5
1.34

###

- assay protocol: in vivo
- settings: both, beagle, dog, plasma, iv, 4 mg/animal
result type: clearance (mL/min/kg)
Answers are plain numbers, in mL/min/kg.

Please indicate clearance recorded for C=C1CC[C@@]2(O)[C@H]3Cc4ccc(O)c5c4[C@@]2(CCN3CC2CC2)[C@H]1O5
46.2
